The entries below are paired with their reported IC50.
# TGT: Recombinant IDO1 (Homo sapiens)
# Construct: His tag (N); made in house; host or cells: E. coli
# Sequence (P14902 whole entry): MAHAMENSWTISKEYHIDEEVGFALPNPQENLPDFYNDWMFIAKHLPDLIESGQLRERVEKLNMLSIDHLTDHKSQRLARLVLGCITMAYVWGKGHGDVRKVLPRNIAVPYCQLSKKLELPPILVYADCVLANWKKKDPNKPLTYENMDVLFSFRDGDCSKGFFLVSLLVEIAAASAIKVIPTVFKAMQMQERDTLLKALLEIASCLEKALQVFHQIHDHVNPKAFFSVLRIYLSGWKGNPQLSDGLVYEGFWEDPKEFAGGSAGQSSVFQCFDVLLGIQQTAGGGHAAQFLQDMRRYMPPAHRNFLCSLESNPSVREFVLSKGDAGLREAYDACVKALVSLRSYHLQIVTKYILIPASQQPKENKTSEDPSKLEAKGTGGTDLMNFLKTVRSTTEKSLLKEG
# MEASUREMENT NOTES: IDO1 enzymatic assay
# Format: biochemical
# MEASUREMENT PARAMETERS: Table 1, 5-substituted imidazo[1,5-a]pyridines; 50 nM IDO1, 1.3 mM D-tryptophan; read-out: Enzyme IC50 (nM) IDO1
Please respond with the number in nM and leave the unit unwritten.

Past entries and their recorded results:
| COMPOUND | TGT | IC50 [nM] |
| --- | --- | --- |
| CC(C)C(O)c1cccc2cncn12 (centres unmarked) | Recombinant IDO1 (Homo sapiens) | 1500 |
| OC1CCCC(C(O)c2c(C3CC3)ccc3cncn23)C1 (centres unmarked) [Example A164b] | Recombinant IDO1 (Homo sapiens) | 42 |
| OC(c1c(Cl)c(Br)cc2cncn12)C1CC1 (centres unmarked) | Recombinant IDO1 (Homo sapiens) | 130 |
| OC(c1cc(Br)cc2cncn12)C1CCCC1 (centres unmarked) | Recombinant IDO1 (Homo sapiens) | 24 |

Identify measured IC50 associated with OC(CC1CCCCC1)c1c(C2CC2)ccc2cncn12 (single isomer, unassigned) [Example A139a]
11

Each recorded value in this set is attributed to patent US10280163B2.
